EXPERIMENTAL SYSTEM: Estrogen receptor beta (Homo sapiens) (UniProt Q92731)
Sequence (Q92731 whole entry, looked up): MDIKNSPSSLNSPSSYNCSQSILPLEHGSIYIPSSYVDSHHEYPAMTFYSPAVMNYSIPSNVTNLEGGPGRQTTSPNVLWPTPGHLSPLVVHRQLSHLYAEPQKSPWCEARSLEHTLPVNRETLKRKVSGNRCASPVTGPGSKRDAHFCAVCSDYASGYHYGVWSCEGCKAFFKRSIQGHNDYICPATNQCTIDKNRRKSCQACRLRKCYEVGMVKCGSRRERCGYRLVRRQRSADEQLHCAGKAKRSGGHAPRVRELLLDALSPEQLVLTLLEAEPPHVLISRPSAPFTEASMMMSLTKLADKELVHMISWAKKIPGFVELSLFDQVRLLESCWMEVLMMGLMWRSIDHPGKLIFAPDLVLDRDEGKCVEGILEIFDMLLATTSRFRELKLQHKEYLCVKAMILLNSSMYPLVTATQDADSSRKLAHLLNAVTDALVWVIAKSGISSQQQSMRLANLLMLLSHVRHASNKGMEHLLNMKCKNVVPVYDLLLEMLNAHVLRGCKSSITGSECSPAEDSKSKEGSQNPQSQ
PROTOCOL NOTES: qHTS assay to identify small molecule antagonists of the estrogen receptor beta (ER-beta) signaling pathway (AID 1259378); also: potency is read from the fitted curve at half-maximal effect
ASSAY SETUP: ER-beta-UAS-bla HEK293T, beta-lactamase FRET ratio, 16 h; series mostly up to 92.4 µM
Results filed as inconclusive are left out. Active and inactive are the calls of the source. Calls follow the shape of the dose curve; as a rule, active = well fitted inhibition curve with a large enough effect in the signal ratio in the repeat runs (not every such curve was filed as active); inconclusive = weak or mixed curves, or effect the other way; inactive = no such curve, though single readings can be large or run the other way; the % refers to the signal ratio.
TEST READOUT: Potency

See these solved cases before continuing.
1) CC1(c2ccc(Oc3ccccc3)cc2)OC(=O)N(Nc2ccccc2)C1=O (configuration not stated); 10.9 µM (active)
2) CC(C)CC(C)N (configuration not stated); inactive
3) O=[N+]([O-])c1cc(Cl)ccc1Cl; inactive
4) CC1(C)[C@H](C(=O)O[C@H](C#N)c2cccc(Oc3ccccc3)c2)[C@@H]1/C=C(\Cl)C(F)(F)F; inactive
5) CCCN(CC)CC1COC2(CCC(C(C)(C)C)CC2)O1 (configuration not stated); inactive
6) Cc1cc(N=Nc2ccccc2C)ccc1N; 19.3 µM (active)
7) ClC1=C(Cl)[C@]2(Cl)[C@@H]3[C@@H](Cl)[C@@H](Cl)C[C@@H]3[C@@]1(Cl)C2(Cl)Cl; inactive
8) CC(C)[C@H](C(=O)OC(C#N)c1cccc(Oc2ccccc2)c1)c1ccc(OC(F)F)cc1 (some centres not stated); inactive

Note to self: Potency recorded for `FC(F)(F)c1cccc(C2=CCN(CCc3ccc4ccccc4c3)CC2)c1` was inactive

Note to self: Potency recorded for `CC(C)(C)OO` was inactive

Note to self: Potency recorded for `CCCCCCCCCCBr` was inactive

Note to self: Potency recorded for C1CCC2CCCCC2C1 (configuration not stated) was inactive

###

PROTOCOL NOTES: qHTS assay to identify small molecule agonists of the RXR signaling pathway - cell viability counter screen (AID 1159529); also: nearly all actives have a fitted effect of over 50% in size
ASSAY SETUP: RXR-alpha-bla HEK293T viability, CellTiter-Glo, 16 h; series mostly up to 76.8 µM
Inconclusive results are not listed. Calls of active or inactive are those of the source. Calls follow the shape of the dose curve; as a rule, active = well fitted cell-killing curve with a large enough effect in the repeat runs; inconclusive = weak or mixed curves, or effect the other way; inactive = no such curve, though single readings can be large or run the other way.
Outcome (select one): True = active, False = inactive

Req: Hey, what did the test say about `CCCN(CCC)c1c([N+](=O)[O-])cc(S(N)(=O)=O)cc1[N+](=O)[O-]` ?
Resp: True

Req: Hey, what did the test say about `CC(C)OC(=O)C(O)(c1ccc(Cl)cc1)c1ccc(Cl)cc1` ?
Resp: True

Req: Hey, what did the test say about `CN(C)C1CSSSC1` ?
Resp: False

Req: Hey, what did the test say about `CC(=O)OC1(c2ccccc2)CCN(CCc2ccccc2)CC1` ?
Resp: False

Req: Hey, what did the test say about `C=COCCCl` ?
Resp: False

Req: Hey, what did the test say about `C[C@]12CC[C@@H]3c4ccc(OC(=O)N(CCCl)CCCl)cc4CC[C@H]3[C@@H]1CC[C@@H]2O` ?
Resp: False

Req: Hey, what did the test say about `SCc1ccco1` ?
Resp: False

Req: Hey, what did the test say about `[CH3][Hg][Cl]` ?
Resp: True

Req: Hey, what did the test say about `COc1cc(C=O)cc2c1[C@H](COC(N)=O)[C@]1(OC(C)=O)ON2C[C@H]2[C@@H]1N2C(C)=O` ?
Resp: False

Req: Hey, what did the test say about Clc1ccc(CCC(Cn2ccnc2)Sc2c(Cl)cccc2Cl)cc1 (stereo unspecified) ?
Resp: True

Req: Hey, what did the test say about `CCC[CH2][Sn]([CH2]CCC)([CH2]CCC)[O]C(=O)c1ccccc1` ?
Resp: True

Req: Hey, what did the test say about `O=[N+]([O-])O.O=[N+]([O-])O.[Cd]` ?
Resp: True

Req: Hey, what did the test say about `CC[C@H](C)[C@H]1O[C@]2(C=C[C@@H]1C)C[C@@H]1C[C@@H](C/C=C(\C)[C@@H](O[C@H]3C[C@H](OC)[C@@H](O[C@H]4C[C@H](OC)[C@@H](O)[C@H](C)O4)[C@H](C)O3)[C@@H](C)/C=C/C=C3\CO[C@@H]4[C@H](O)C(C)=C[C@@H](C(=O)O1)[C@]34O)O2` ?
Resp: True

Req: Hey, what did the test say about CC(C)C1CCC(Cc2ccc(Cl)cc2)C1(O)Cn1cncn1 (stereo unspecified) ?
Resp: True

Req: Hey, what did the test say about c1ccc(OCC2CO2)cc1 (stereo unspecified) ?
Resp: False

Req: Hey, what did the test say about `Cc1cc(C)c(C2=C(OC(=O)CC(C)(C)C)C3(CCCC3)OC2=O)c(C)c1` ?
Resp: False
